Target: T1, human TL1A extracellular domain with N-terminal HIS and FLAG tag (human, UniProt O95150 72-251)
T1 construct: the whole entry is named
T1 sequence: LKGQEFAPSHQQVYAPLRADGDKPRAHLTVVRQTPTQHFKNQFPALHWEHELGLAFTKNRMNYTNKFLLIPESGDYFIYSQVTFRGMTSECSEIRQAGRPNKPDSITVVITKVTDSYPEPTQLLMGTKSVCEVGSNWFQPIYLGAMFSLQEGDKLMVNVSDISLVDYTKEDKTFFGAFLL
Assay: SPR Run 6, purified Ab captured on Protein A, TL1A 5 ug/mL, timepoint 170
readoutLabel: TL1A Binding Level (Late) (RU)
Report the value in RU with no unit label.

Asked: Look up TL1A Binding Level (Late): 320-467 (antibody, human IgG1, name in Kabat numbering, V domains shown, human IgG1, lambda) VH: QVQLVQSGAEVKKPGASVKVSCKASGYTFTSYDIHWVRQAPGQGLEWMGWLNPNSGNTGYAQKFQGRVTMTADRSTSTAYMELSSLRSEDTAVYYCAREVPETAAFEYWGQGTLVTVSS VL: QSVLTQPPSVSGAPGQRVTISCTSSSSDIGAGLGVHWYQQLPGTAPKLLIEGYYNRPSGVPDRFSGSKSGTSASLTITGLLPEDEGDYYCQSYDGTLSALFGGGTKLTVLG
Given back: 24

Asked: Which TL1A Binding Level (Late) value is on record for 320-461 (antibody, human IgG1, name in Kabat numbering, V domains shown, human IgG1, lambda) VH: QVQLVQSGAEVKKPGASVKVSCKASGYTFTSYDWNWVRQAPGQGLEWMGWLNPNSGNTGYAQKFQGRVTMTADRSTSTAYMELSSLRSEDTAVYYCAREVPETAAFEYWGQGTLVTVSS VL: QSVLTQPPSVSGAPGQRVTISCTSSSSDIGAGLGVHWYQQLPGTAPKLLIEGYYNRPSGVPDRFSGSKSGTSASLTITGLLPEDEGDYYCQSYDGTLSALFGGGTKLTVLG ?
Given back: 82

Asked: Given the binder 320-476 (antibody, human IgG1, name in Kabat numbering, V domains shown, human IgG1, lambda) VH: QVQLVQSGAEVKKPGASVKVSCKASGKTFTSYDINWVRQAPGQGLEWMGWLNPNSGNTGYAQKFQGRVTMTADRSTSTAYMELSSLRSEDTAVYYCAREVPETAAFEYWGQGTLVTVSS VL: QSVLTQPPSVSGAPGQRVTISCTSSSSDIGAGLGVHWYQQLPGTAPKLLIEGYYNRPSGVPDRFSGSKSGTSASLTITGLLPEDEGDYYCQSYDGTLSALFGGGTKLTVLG , what is its reported TL1A Binding Level (Late)?
Given back: 118
